Reference source for all entries: patent US20080280920A1

Test system: COLO 205
Experiment: NCI anticancer screen, COLO 205
Type: cell-based, human
Settings: Homo sapiens; COLO 205, Colon, 48 h
measured property: GI50 (µM)

1. COc1cc(CNCC2CCN(C(=O)OC(C)(C)C)CC2)cc(CN2CCN(c3ccccn3)CC2)c1O [Compound Q012132]	16.8
2. CC(C)(C)OC(=O)Nc1ccc(O)c(C(=O)NCCOC(=O)NCCNC(=O)c2cc(OCc3ccccc3)ccc2OCc2ccccc2)c1 [Compound Q012052]	8.97
3. CCOC(=O)c1ccc(CNCc2cc(CN3CCN(c4ccccn4)CC3)c(O)c(OC)c2)cc1 [Compound Q012135T]	17
4. COc1cc(CNc2ccc(C(=O)OC(C)(C)C)cc2)cc(CN2CCN(c3ccccn3)CC2)c1O [Compound Q012145T]	24.8

====

// SK-OV-3 GI50 records
measured property: GI50 (µM)

1. COc1cc(CNCC2CCN(C(=O)OC(C)(C)C)CC2)cc(CN2CCN(c3ccccn3)CC2)c1O [Compound Q012132]	29.4
2. CCOC(=O)c1ccc(CNCc2cc(CN3CCN(c4ccccn4)CC3)c(O)c(OC)c2)cc1 [Compound Q012135T]	24.9

====

System: NCI-H322M
Experiment: NCI anticancer screen, NCI-H322M
Type: cell-based, human
Conditions: Homo sapiens, Non-Small Cell Lung, 48 h
// GI50 lookup, one value per entry
measured property: GI50 (µM)

1. CCOC(=O)[C@H](Cc1ccccc1)NCc1cc(CN2CCN(c3ccccn3)CC2)c(O)c(OC)c1 [Compound Q012147T]	49.4
2. COc1cc(CNCC2CCN(C(=O)OC(C)(C)C)CC2)cc(CN2CCN(c3ccccn3)CC2)c1O	37.8
3. CCOC(=O)c1ccc(CNCc2cc(CN3CCN(c4ccccn4)CC3)c(O)c(OC)c2)cc1 [Compound Q012135T]	33.8

====

Recorded GI50, one value per entry.
Tested on: M14
measured property: GI50 (µM)

1. COc1cc(CNCC2CCN(C(=O)OC(C)(C)C)CC2)cc(CN2CCN(c3ccccn3)CC2)c1O	5.8
2. CCOC(=O)[C@H](Cc1ccccc1)NCc1cc(CN2CCN(c3ccccn3)CC2)c(O)c(OC)c1 [Compound Q012147T]	99
3. CCOC(=O)c1ccc(CNCc2cc(CN3CCN(c4ccccn4)CC3)c(O)c(OC)c2)cc1 [Compound Q012135T]	17.2
4. COc1cc(CNc2ccc(C(=O)OC(C)(C)C)cc2)cc(CN2CCN(c3ccccn3)CC2)c1O [Compound Q012145T]	83.3

====

SR measurements of log10 GI50, listed per entry.
measured property: log10 GI50 (log10 of the value in µM)

1. CCOC(=O)c1ccc(CNCc2cc(CN3CCN(c4ccccn4)CC3)c(O)c(OC)c2)cc1 [Compound Q012135T]	0.62
2. CC(C)(C)OC(=O)Nc1ccc(O)c(C(=O)NCCOC(=O)NCCNC(=O)c2cc(OCc3ccccc3)ccc2OCc2ccccc2)c1	1.95
3. COc1cc(CNc2ccc(C(=O)OC(C)(C)C)cc2)cc(CN2CCN(c3ccccn3)CC2)c1O [Compound Q012145T]	0.92
4. CCOC(=O)[C@H](Cc1ccccc1)NCc1cc(CN2CCN(c3ccccn3)CC2)c(O)c(OC)c1 [Compound Q012147T]	-0.49
5. COc1cc(CNCC2CCN(C(=O)OC(C)(C)C)CC2)cc(CN2CCN(c3ccccn3)CC2)c1O	1.04

====

UACC-257: recorded GI50 for assorted molecules
measured property: GI50 (µM)

1) CC(C)(C)OC(=O)Nc1ccc(O)c(C(=O)NCCOC(=O)NCCNC(=O)c2cc(OCc3ccccc3)ccc2OCc2ccccc2)c1	15.6
2) CCOC(=O)[C@H](Cc1ccccc1)NCc1cc(CN2CCN(c3ccccn3)CC2)c(O)c(OC)c1 [Compound Q012147T]	67.3
3) COc1cc(CNCC2CCN(C(=O)OC(C)(C)C)CC2)cc(CN2CCN(c3ccccn3)CC2)c1O	18.4
4) COc1cc(CNc2ccc(C(=O)OC(C)(C)C)cc2)cc(CN2CCN(c3ccccn3)CC2)c1O [Compound Q012145T]	33

====

Measured Conc. of compound required for PAI-1 inhibition, listed per entry for reference.
Target: wildtype human PAI-1 (Homo sapiens, UniProt P05121)
Construct: purchased Molecular Innovations Lot# HWT-804
Sequence (P05121 24-402): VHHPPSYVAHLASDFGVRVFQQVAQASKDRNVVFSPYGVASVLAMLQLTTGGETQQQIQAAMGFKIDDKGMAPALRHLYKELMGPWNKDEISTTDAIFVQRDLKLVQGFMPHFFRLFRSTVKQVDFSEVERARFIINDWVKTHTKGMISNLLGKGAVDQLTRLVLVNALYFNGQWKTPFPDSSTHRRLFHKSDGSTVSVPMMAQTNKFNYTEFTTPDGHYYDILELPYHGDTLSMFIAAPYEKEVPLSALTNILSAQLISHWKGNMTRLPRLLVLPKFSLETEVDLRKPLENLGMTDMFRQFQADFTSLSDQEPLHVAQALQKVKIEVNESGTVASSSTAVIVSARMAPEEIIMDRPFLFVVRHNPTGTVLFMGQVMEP
Assay: PAI-1/uPA assay (residual uPA activity, fluorescent substrate SpectroFluor)
Type: biochemical
Settings: concentration giving the percent inhibition; 6 nM PAI-1, 8 nM uPA
measured property: Conc. of compound required for PAI-1 inhibition (µM)

1. O=C(N[C@@H](Cc1csc2ccccc12)C(=O)O)[C@@H]1CCCNC1 [Compound Q012129]	1
2. CCOC(=O)[C@H](Cc1csc2ccccc12)NC(=O)COc1ccc2c(C)cc(=O)oc2c1 [Compound Q012055]	0.05
3. COc1cc(/C=C/C(=O)CC(=O)/C=C/c2ccc(O)c(OC)c2)ccc1O [Curcumin, curcumin, reference compound]	0.5
4. COc1cc(CNc2ccccn2)cc(CN2CCN(c3ccccn3)CC2)c1O [Compound Q012143]	250
5. COc1cc(CNCc2ccc(C(=O)O)cc2)cc(CN2CCN(c3ccccn3)CC2)c1O [Compound Q012136]	50
6. CCOC(=O)[C@H](Cc1csc2ccccc12)NC(=O)COc1ccc2c(C(F)(F)F)cc(=O)oc2c1 [Compound Q012124]	0.05
7. CC(C)(C)OC(=O)Nc1ccc(O)c(C(=O)NCCOC(=O)NCCNC(=O)c2cc(OCc3ccccc3)ccc2OCc2ccccc2)c1 [Compound Q012052]	0.05
8. CC(C)(C)OC(=O)N1CCC[C@@H](C(=O)N[C@@H](Cc2csc3ccccc23)C(=O)O)C1 [Compound Q012128]	10
9. Cl.O=C(N[C@@H](Cc1csc2ccccc12)C(=O)O)c1cncc(Br)c1 [Compound Q011265]	1
10. CCOC(=O)[C@H](CCCNC(=N)NS(=O)(=O)c1c(C)cc(OC)c(C)c1C)NC(=O)N[C@@H](Cc1csc2ccccc12)C(=O)OCC [Compound Q012059]	10
11. CN1C(=N)N/C(=C\c2csc3ccccc23)C1=O [Compound Q012038]	10
12. CCOC(=O)[C@H](Cc1ccccc1)NC(=O)Nc1ccc2c(C)cc(=O)oc2c1 [Compound Q012053]	10
13. CC(C)(C)OC(=O)Nc1ccc(O)c(C(=O)NCCO)c1 [Compound Q012021B]	10
14. CCOC(=O)[C@H](Cc1csc2ccccc12)NC(=O)[C@@H]1CCCN(C(=O)OC(C)(C)C)C1 [Compound Q012126]	50
15. COc1cc(CNCCCn2ccnc2)cc(CN2CCN(c3ncccn3)CC2)c1O [Compound Q012110]	5
16. CCOC(=O)c1ccc(CNCc2cc(CN3CCN(c4ccccn4)CC3)c(O)c(OC)c2)cc1 [Compound Q012135T]	100
17. CN(C)CCSc1ccc(/C=C2\NC(=O)N(Cc3ccc(OCc4ccccc4)cc3)C2=O)s1 [Compound Q013021]	1
18. CCOC(=O)[C@H](Cc1csc2ccccc12)NC(=O)[C@@H]1CCCNC1 [Compound Q012127]	250
19. Cc1cc(=O)oc2cc(OCC(=O)N[C@@H](Cc3csc4ccccc34)C(=O)O)ccc12 [Compound Q012055A]	1

====

System: UO-31
measured property: GI50 (µM)

1) CCOC(=O)c1ccc(CNCc2cc(CN3CCN(c4ccccn4)CC3)c(O)c(OC)c2)cc1 [Compound Q012135T]	11.5
2) CCOC(=O)[C@H](Cc1ccccc1)NCc1cc(CN2CCN(c3ccccn3)CC2)c(O)c(OC)c1 [Compound Q012147T]	94.1
3) CC(C)(C)OC(=O)Nc1ccc(O)c(C(=O)NCCOC(=O)NCCNC(=O)c2cc(OCc3ccccc3)ccc2OCc2ccccc2)c1	19.9
4) COc1cc(CNc2ccc(C(=O)OC(C)(C)C)cc2)cc(CN2CCN(c3ccccn3)CC2)c1O [Compound Q012145T]	67.2

====

Catalogue of GI50 readings, one per entry.
Test system: NCI/ADR-RES
Assay: NCI anticancer screen, NCI/ADR-RES
Assay type: cell-based, human
Conditions: Homo sapiens, Breast, 48 h
measured property: GI50

1) CCOC(=O)c1ccc(CNCc2cc(CN3CCN(c4ccccn4)CC3)c(O)c(OC)c2)cc1 [Compound Q012135T]	27.6 µM
2) COc1cc(CNCC2CCN(C(=O)OC(C)(C)C)CC2)cc(CN2CCN(c3ccccn3)CC2)c1O	21.4 µM
3) CCOC(=O)[C@H](Cc1ccccc1)NCc1cc(CN2CCN(c3ccccn3)CC2)c(O)c(OC)c1 [Compound Q012147T]	> 100 µM
4) CC(C)(C)OC(=O)Nc1ccc(O)c(C(=O)NCCOC(=O)NCCNC(=O)c2cc(OCc3ccccc3)ccc2OCc2ccccc2)c1	> 100 µM
5) COc1cc(CNc2ccc(C(=O)OC(C)(C)C)cc2)cc(CN2CCN(c3ccccn3)CC2)c1O [Compound Q012145T]	41.1 µM
